- systemName: Glucocorticoid receptor (Homo sapiens)
- assayRemarks: qHTS assay to identify small molecule antagonists of the glucocorticoid receptor (GR) signaling pathway (AID 720692)
- conditionContext: GR-bla HeLa, beta-lactamase FRET ratio, dexamethasone-stimulated, 18 h; series mostly up to 58.5 µM
Records with an inconclusive call do not appear. Active and inactive are the calls of the source. Calls follow the shape of the dose curve; as a rule, active = well fitted inhibition curve with a large enough effect in the signal ratio in the repeat runs (not every such curve was filed as active); inconclusive = weak or mixed curves, or effect the other way; inactive = no such curve, though single readings can be large or run the other way; the % refers to the signal ratio.
A correct response names exactly one class from active, inactive

compound | classAssignment
CC(C)CC(C)(c1ccc(O)cc1)c1ccc(O)cc1 | active
Cn1cc(C2=C(c3cn(C4CCN(Cc5ccccn5)CC4)c4ccccc34)C(=O)NC2=O)c2ccccc21 | active
CC1CCC(C(C)C)C(OC(=O)c2ccccc2N)C1 (stereo not given) | inactive
COc1cc(N)c(Cl)cc1C(=O)NC1CN2CCC1CC2 (stereo not given) | inactive

Here is the next item to consider.
### Prompt Write down the call the test reported for this compound. Item: `C[C@]12CC[C@@H]3c4ccc(OC(=O)N(CCCl)CCCl)cc4CC[C@H]3[C@@H]1CC[C@@H]2O`
### Response inactive

---

- assayRemarks: qHTS assay to identify small molecule antagonists of the constitutive androstane receptor (CAR) signaling pathway - cell viability counter screen (AID 1224837); also: nearly all actives have a fitted effect of over 45% in size
- conditionContext: HepG2-CYP2B6-hCAR viability, CellTiter-Fluor, 23 h, co-treated with 50 nM CITCO; series mostly up to 92.4 µM
Results filed as inconclusive are left out. Activity calls are given as the source filed them. The call rests on the fitted dose curve; in most records, active means well fitted cell-killing curve with a large enough effect in the repeat runs; inconclusive means weak or mixed curves, or effect the other way; inactive means flat fitted curve, though single readings scatter.
Assign a class; possible classes are active, inactive

Here are 5 molecules together with their reported answers.
molecule | classAssignment
C1CCC2CCCCC2C1 (centres undefined) | inactive
CC(c1ccc(O)cc1)c1ccc(O)cc1 | inactive
CC(C)CBr | inactive
COP(=S)(OC)Oc1cc(Cl)c(Br)cc1Cl | inactive
O=C(O)c1cc[c]([Hg][Cl])cc1 | active

### Prompt Hello, I am checking results. What call was entered for `CCOP(=S)(OCC)SCS(=O)(=O)CC` ?
### Response inactive

---

- assayRemarks: qHTS assay to identify small molecule antagonists of the estrogen receptor alpha (ER-alpha) signaling pathway using the BG1 cell line - cell viability counter screen (AID 743081);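 also: compound given together with 17beta-estradiol as the ER stimulus; nearly all actives have a fitted effect of over 45% in size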; also: potency is read from the fitted curve at half-maximal effect
- conditionContext: BG1Luc4E2 viability, CellTiter-Fluor, 22 h; series mostly up to 70.3 µM
Inconclusive results are not listed. The source made the active and inactive calls. The call rests on the fitted dose curve; in most records, active means well fitted cell-killing curve with a large enough effect in the repeat runs; inconclusive means weak or mixed curves, or effect the other way; inactive means flat fitted curve, though single readings scatter.
measurementLabel: Potency

Sample records with Potency:
compound | Potency
O=[N+]([O-])c1cc(C(F)(F)F)c(Cl)c([N+](=O)[O-])c1Cl | 61.1 µM (active)
O=c1[nH]c2ccccc2n1C1CCN(CCCC(c2ccc(F)cc2)c2ccc(F)cc2)CC1 | 54.5 µM (active)
COc1ccc(N)cc1N | inactive
ClC1=C(Cl)[C@]2(Cl)[C@@H]3[C@@H]4C[C@@H]([C@H]5O[C@@H]45)[C@@H]3[C@@]1(Cl)C2(Cl)Cl | inactive
CCCCCCCCCCCCBr | inactive

Moving on to the next compound.
compound `Cc1cc(C)cc(OP(=O)(Oc2cc(C)cc(C)c2)Oc2cc(C)cc(C)c2)c1` , Potency observed: inactive

---

- assayRemarks: qHTS assay for identifying genotoxic compounds that show differential cytotoxicity against isogenic chicken DT40 cell lines with known DNA damage response pathways - wild type cell line (AID 743012); also: nearly all actives have a fitted effect of over 60% in size; also: potency is read from the fitted curve at half-maximal effect
- conditionContext: DT40 wild type chicken cells viability, CellTiter-Glo, 40 h; series mostly up to 68.4 µM
Inconclusive results are not listed. Calls of active or inactive are those of the source. The call rests on the fitted dose curve; in most records, active means well fitted cell-killing curve with a large enough effect in the repeat runs; inconclusive means weak or mixed curves, or effect the other way; inactive means no such curve, though single readings can be large or run the other way.
measurementLabel: Potency

compound | Potency
O=S(=O)(c1ccc(Cl)cc1)c1ccc(Cl)cc1 | 24.6 µM (active)
CCOP(=S)(OCC)OC(Cl)C(Cl)(Cl)Cl (stereo not drawn) | inactive
CC(C)N1C(=O)N(c2ccccc2)CSC1=NC(C)(C)C | 21.7 µM (active)
Oc1c(Br)c(Br)c(Br)c(Br)c1Br | inactive
CNC(C)Cc1ccc2c(c1)OCO2 (stereo not drawn) | inactive

For reference, reported Potency for `BrC(Br)Br` stands at inactive

Looking up `C[C@@H]1CC[C@@]2(OC1)O[C@H]1[C@@H](O)[C@H]3[C@@H]4CC[C@H]5C[C@@H](O[C@@H]6O[C@H](CO)[C@H](O[C@@H]7O[C@H](CO)[C@@H](O)[C@H](O[C@@H]8OC[C@@H](O)[C@H](O)[C@H]8O)[C@H]7O[C@@H]7O[C@H](CO)[C@@H](O)[C@H](O[C@@H]8O[C@H](CO)[C@@H](O)[C@H](O)[C@H]8O)[C@H]7O)[C@H](O)[C@H]6O)[C@H](O)C[C@]5(C)[C@H]4CC[C@]3(C)[C@H]1[C@@H]2C` , I see its Potency listed as 16.3 µM (active)

// `ClC(Cl)=C(c1ccc(Cl)cc1)c1ccc(Cl)cc1` : Potency value = inactive
